System: M14 melanoma
test_method_notes: NCI-60 one-dose screen, 48 h (100 = growth as untreated, 0 = no growth, -100 = all killed)
conditions_used: 10 µM
About 83,000 compounds went through this panel and 20% of them were active in at least one assay; those are over-represented in the sample as a whole.
readout_kind: growth (%)
Return type: number; implicit unit %.

Would you please look over these solved cases?
compound: Cc1ccc(CNc2nc3ccc(OC/C(=C/F)CN)cc3o2)cn1
readout_kind: growth
endpoint_result: 99.8
//
compound: CC(=O)O[C@@H]1[C@@H]2O[C@H]2[C@@](C)(O)C(=O)[C@@H](C)C/C=C/[C@H]2[C@@H]3O[C@]3(C)[C@@H](C)C3[C@H](Cc4ccccc4)NC(=O)[C@@]312 (stereo partly drawn)
readout_kind: growth
endpoint_result: 65.2

Now, please, on to the next compound.
Query: growth; subject: COc1cc(OC)c(S(=O)(=O)N(CCCl)CCCl)cc1C(=O)/C=C/c1ccc(Cl)cc1 68.4

---

Tested on: HL-60(TB) leukemia
test_method_notes: NCI-60 one-dose screen, 48 h
conditions_used: 10 µM unless noted
This is part of a sample that, as a whole, favours compounds with a hit. Of some 83,000 tested, about 20% had one in any assay. Activity calls are given as the source filed them. How the source made its calls: active means growth percent below 10; inactive means the rest.
The reply should be one of these categories: active, inactive

Worked set:
compound: O=C(CSc1nc2ccccc2c(=O)n1-c1ccc(Cl)cc1)N/N=C/c1ccc(Oc2ccc(Cl)cc2)cc1
discrete_label: inactive

compound: COc1ccc2c(c1)c(CC(=O)[Se]CC#N)c(C)n2C(=O)c1ccc(Cl)cc1
discrete_label: active

compound: Cc1sc2c(c1C)c(=O)nc1c(-c3nc(-c4ccc(F)cc4)no3)n[nH]n12
discrete_label: inactive

compound: C#C[C@]1(O)CC[C@H]2[C@@H]3CC=C4c5sc(-c6ccccn6)nc5CC[C@]4(C)[C@H]3CC[C@@]21C
discrete_label: inactive

compound: CCCC(=O)NC(c1ccc(N(CC)CC)cc1)c1cc(C)c2cccnc2c1O (centres undefined)
discrete_label: active

compound: CN(C)CCNC(=O)c1ccc(-c2nc3ccc4[nH]ncc4c3c3c2COCC3)cc1
discrete_label: active

compound: CCOC(=O)C1=NNC(c2ccc(Cl)cc2)C1C(=O)N1C(=S)NC(=O)C1CC(C)C (centres undefined)
discrete_label: inactive

compound: NC(N)=Nc1ccc(Oc2cccc(Nc3ccc(Br)c(C(F)(F)F)c3)c2)cn1
discrete_label: active

Now let's try a different one.
Please state the recorded outcome for this compound: CC1(C)CC[C@]2(C(=O)N3CCCNCC3)CC[C@]3(C)C(=CC[C@@H]4[C@@]5(C)CCC(=O)C(C)(C)[C@@H]5CC[C@]43C)[C@H]2C1 inactive

---

The following compounds are listed with their measured growth values.
System: CCRF-CEM leukemia
test_method_notes: NCI-60 one-dose screen, 48 h (100 = growth as untreated, 0 = no growth, -100 = all killed)
conditions_used: 10 µM
This is part of a sample that, as a whole, favours compounds with a hit. Of some 83,000 tested, about 20% had one in any assay.
Return type: number; implicit unit %.

compound: CC1=C(CCC=NNC(N)=O)C2=C(C)C3(CC3)[C@@](C)(O)C(=O)C2=C1
readout_kind: growth
endpoint_result: 26.6

compound: CC1=C2C(=C[C@@](C)(COS(C)(=O)=O)[C@@H]2O)C(=O)[C@](C)(O)C12CC2
readout_kind: growth
endpoint_result: 11

compound: COc1cc2c(O[C@@H]3OC[C@H](O)[C@H](O)[C@H]3O)c3c(c(-c4ccc5c(c4)OCO5)c2cc1OC)C(=O)OC3
readout_kind: growth
endpoint_result: 46.6

Notebook entry, CCRF-CEM leukemia assay: growth of C/C=C\C(=O)O[C@@H]1CC2O[C@@H]3C=C(C)C(=O)C[C@]3(C)[C@]1(C)[C@]21CO1 = ? -12.8

Notebook entry, CCRF-CEM leukemia assay: growth of CC1=C[C@H]2O[C@@H]3C[C@H]4OC(=O)/C=C\C=C\[C@H]([C@@H](C)O)OCC[C@@H](C)[C@H](O)C(=O)OC[C@@]2(CC1)[C@]4(C)[C@]31CO1 = ? -7.82

Notebook entry, CCRF-CEM leukemia assay: growth of CC(=O)O[C@@H]1C[C@H]2O[C@@H]3C=C(C)CC[C@]3(C)[C@]1(C)[C@]21CO1 = ? -3.18

Notebook entry, CCRF-CEM leukemia assay: growth of O=C(CCCc1ccc(N(CCCl)CCCl)cc1)OCc1ccccc1 = ? 82.1

---

System: HL-60(TB) leukemia
test_method_notes: NCI-60 one-dose screen, 48 h (100 = growth as untreated, 0 = no growth, -100 = all killed)
conditions_used: 10 µM unless noted
The panel holds about 83,000 compounds, 20% with a hit somewhere; the sample as a whole holds those more often.
The label yes (1) is reserved for growth strictly under 60%; no (0) covers values equal to or above it.

Worked set:
molecule: CCCCCCNC(=O)Oc1ccc(/C(=C(\C)c2ccc(OC)cc2)c2ccc(OCCN(C)C)cc2)cc1
discrete_label: yes (1)
--
molecule: O=C(NNc1nc2cc(F)c(F)cc2n2cccc12)c1cccnn1
discrete_label: yes (1)
--
molecule: CC1=CC(=O)CC(C)(C)[C@@]1(O)/C=C/C(C)=C\C(=O)O
discrete_label: yes (1)
--
molecule: CC(Nc1c(C#N)cnc2ccc(-c3cncc(-c4n[nH]c(=O)o4)c3)cc12)c1ccccc1 (centres undefined)
discrete_label: yes (1)
--
molecule: O=C(NNc1nc2cc(F)cc(F)c2n2cccc12)c1cccnn1
discrete_label: yes (1)

API: query returns whether the molecule falls strictly under 60% in growth. Query: Cc1cc2nc(C(Cl)Cl)nc(-c3cccs3)n2n1 yes (1)

API: query returns whether the molecule falls strictly under 60% in growth. Query: NS(=O)(=O)c1ccc(Nc2cc(-c3ccccc3)nc(SCC(=O)c3ccccc3)n2)cc1 no (0)

API: query returns whether the molecule falls strictly under 60% in growth. Query: C=CCn1c(SCC(=O)Nc2ccc(OC)cc2)nnc1-c1ccc(Cl)cc1 no (0)

API: query returns whether the molecule falls strictly under 60% in growth. Query: Nc1ncc(-c2ccc3ncnc(N4CCc5cc(F)c(Cl)cc54)c3c2)cn1 yes (1)

API: query returns whether the molecule falls strictly under 60% in growth. Query: CCC(C)[C@H]1OC(=O)[C@H](C(C)C)N(C)C(=O)[C@@H](C(C)C)OC(=O)[C@H](C(C)C)N(C)C(=O)[C@@H](C(C)CC)OC(=O)[C@H](C(C)C)N(C)C1=O (some centres undefined) yes (1)

API: query returns whether the molecule falls strictly under 60% in growth. Query: CN1CCN(c2nc(-c3csc(-c4ccccc4)n3)cc3ccccc23)CC1 yes (1)

API: query returns whether the molecule falls strictly under 60% in growth. Query: COc1cc(C(=O)c2cc(C(C)=O)c3c4ccccc4ccn23)cc(OC)c1OC yes (1)

---

System: ACHN renal
test_method_notes: NCI-60 one-dose screen, 48 h (100 = growth as untreated, 0 = no growth, -100 = all killed)
conditions_used: 10 µM
The panel holds about 83,000 compounds, 20% with a hit somewhere; the sample as a whole holds those more often.
readout_kind: growth (%)
Return type: number; implicit unit %.

Would you please look over these solved cases?
compound: CN(CCF)/N=N/c1nc[nH]c1C(N)=O
display_unit: %
growth: 36.6
--
compound: C=C1[C@@H](C)C2[C@H](Cc3ccccc3)NC(=O)[C@]23[C@H](OC(C)=O)/C=C/[C@@](C)(O)C(=O)[C@@H](C)C/C=C/[C@H]3[C@@H]1O (some centres undefined)
display_unit: %
growth: 41.9
--
compound: CCC(C)[C@H]1C(=O)O[C@H](C(C)C)C(=O)N(C)[C@@H](C(C)C)C(=O)O[C@H](C(C)C)C(=O)N(C)[C@@H](C(C)C)C(=O)O[C@H](C(C)C)C(=O)N1C (some centres undefined)
display_unit: %
growth: 9.28

Query: growth; subject: CC1=C(CCC=NNC(N)=O)C2=C(C)C3(CC3)[C@@](C)(O)C(=O)C2=C1 -10.3

---

Test system: HL-60(TB) leukemia
test_method_notes: NCI-60 one-dose screen, 48 h (100 = growth as untreated, 0 = no growth, -100 = all killed)
conditions_used: 10 µM unless noted
About 83,000 compounds went through this panel and 20% of them were active in at least one assay; those are over-represented in the sample as a whole.
The label satisfied is reserved for growth strictly under 30%; not satisfied covers values equal to or above it.

Worked set:
compound: Oc1ccc(-c2nc3ccc(/C(=N\N=C\c4ccc(Cl)cc4)c4ccccc4)cc3[nH]2)cc1
discrete_label: satisfied

compound: COC(=O)c1[nH]nc2c1C1(C(=O)N(C)c3ccccc31)C(C#N)=C(N)O2 (centres undefined)
discrete_label: not satisfied

compound: c1ccc(-c2n(Cc3ccc4ccccc4c3)c3c4ccccc4c4ccccc4c3[n+]2Cc2ccc3ccccc3c2)cc1
discrete_label: satisfied

compound: C#C[C@]1(O)CC[C@H]2[C@@H]3CC=C4c5sc(Nc6ncccc6C)nc5CC[C@]4(C)[C@H]3CC[C@@]21C
discrete_label: satisfied

compound: NC(N)=Nc1ccc(Nc2cccc(Nc3ccc(Cl)c(C(F)(F)F)c3)c2)cn1
discrete_label: satisfied

compound: O=C(CSc1nnc(-c2cccs2)n1-c1ccccc1)Nc1ccccc1
discrete_label: not satisfied

API: query returns whether the compound falls strictly under 30% in growth. Query: Clc1cccc(/C=N/Nc2nc(N/N=C/c3cccc(Cl)c3Cl)nc(N3CCCCC3)n2)c1Cl not satisfied

API: query returns whether the compound falls strictly under 30% in growth. Query: CC(=O)Nc1ccc(NC(=O)Nc2cccc(-c3nc(-c4ccc(NC(=O)c5cccs5)cc4Cl)no3)c2)cc1C(F)(F)F satisfied

API: query returns whether the compound falls strictly under 30% in growth. Query: COc1ccc(Cc2nn(CC(=O)N/N=C/c3ccc(Cl)cc3)c(=O)c3c(C)noc23)cc1 not satisfied
